The reported measurements were obtained from patent US20190359693A1.

Molecular target: HA of B/Florida/04/2006 (Yamagata) (influenza B virus)
Test: cell-based or functional assay
Listed here are binders together with their documented VNA titer.

binder="SD1046 (VHH) VHH: EVQLVESGGGLVQAGDSLRISCAASGRTLSIYSMGWFRQAPGKEREFVATIGWNSGRTFYPDSLKGRFTISRDNARNTLYLQMNNLRPEDTAVYYCAAAKGPLRLSSQADYWGQGTQVTVSS" parameter_measured="VNA titer" measurement="> 1000 nM"

Alright, here's another binder for you.
Return value of VNA titer for input SD1086 (VHH) VHH: EVQLVESGGGLVQAGGSLRLSCTASGSISSIDYMRWYRQYPGKHRELVATITSGGAADSRDSVKGRFTVSRGNAANTMYLQMNNLKPEDTAVYYCNAYGLEIGAHWGRGTQVTVSS , no commentary.
> 1000 nM
